Cited source: ChEMBL document CHEMBL1201862

This section presents compounds with their documented GI50 values.
Test system: ACHN
Experiment: NCI tumour cell line growth inhibition, 48 h
Active and inactive are the calls of the source. No stated cut-off is given here; in the data, active = GI50 up to about 1.1 µM and inactive = higher.
assayMetric: GI50

1. O=C(Cc1ccccc1)NN1C(=O)/C(=C\c2ccc(O)cc2)S/C1=N\c1ccccc1
> 100 µM (inactive)
2. Nc1ncc(Cc2nc3ccccc3s2)s1
54.5 µM (inactive)
3. CC(=O)Oc1c(Br)ccc2cc(C(Br)Br)c(C(=O)c3ccccc3)nc12
22.1 µM (inactive)
4. Cn1c2c(c3ccccc31)CCN(CCCCN1CCN(c3cccc(Cl)c3)CC1)C2=O
14.9 µM (inactive)
5. CNC(=S)NN=C1NCCCCN1
> 100 µM (inactive)
6. O=S(=O)(O)c1ccc(-c2c3nc(c(-c4ccc(S(=O)(=O)O)cc4)c4ccc([nH]4)c(-c4ccc(S(=O)(=O)O)cc4)c4nc(c(-c5ccc(S(=O)(=O)O)cc5)c5ccc2[nH]5)C=C4)C=C3)cc1
86.3 µM (inactive)
7. CCC(C)C(NC(=O)C(CCCCN)NC(=O)C(NC(=O)C(CCC(N)=O)NC(=O)C(CCCNC(=N)N)NC(C)=O)C(C)CC)C(=O)NC(Cc1c[nH]c2ccccc12)C(=O)NC(Cc1ccccc1)C(=O)NC(CCC(N)=O)C(=O)NC(CC(N)=O)C(=O)NC(CCCNC(=N)N)C(=O)NC(CCCNC(=N)N)C(=O)NC(CCSC)C(=O)NC(CCCCN)C(=O)NC(Cc1c[nH]c2ccccc12)C(=O)NC(CCCCN)C(=O)NC(CCCCN)C(N)=O (centres undefined)
> 50 µM (inactive)
8. c1ccc2c3c(ccc2c1)CSCc1ccc2ccccc2c1-3
> 100 µM (inactive)
9. COc1ccc(C2(Cl)C(Cl)(C(F)(F)F)C2(Cl)C(F)(F)F)cc1 (centres undefined)
16.8 µM (inactive)
